Target: Thymidylate kinase (Mycobacterium tuberculosis)
Sequence (P9WKE1 whole entry): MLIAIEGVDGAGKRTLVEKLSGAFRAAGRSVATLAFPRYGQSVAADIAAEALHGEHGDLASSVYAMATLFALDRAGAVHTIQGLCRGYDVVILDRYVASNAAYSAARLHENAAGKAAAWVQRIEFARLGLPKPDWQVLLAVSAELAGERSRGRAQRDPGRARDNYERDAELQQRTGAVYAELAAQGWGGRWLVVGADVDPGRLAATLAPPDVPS
pKi: −log10 of the molar value.
observation-type: pKi

{"structure-smiles": "Cc1cn([C@H]2C[C@H](CN=[N+]=[N-])[C@@H](COP(=O)(O)O)O2)c(=O)[nH]c1=O", "endpoint-result": 5.00}
